- target: Ferritin light chain (Equus caballus)
- assay remarks: qHTS Validation Assay for Identification of Novel General Anesthetics (AID 2323)
- condition parameters: horse apoferritin, anesthetic-site fluorescent probe displacement; series mostly up to 76.9 µM
- From the text: Source: NIH Chemical Genomics Center [NCGC] Assay Submitter: Roderic Eckenhoff, University of Pennsylvania Screening Center PI: Christopher P. Austin, NIH Probe Development: NIH Chemical Genomics Center [NCGC] Anesthetic development has remained a largely empirical process. There are growing concerns about the cognitive effects of known general anesthetics and acceleration of the onset of neurodegenerative disease. […]
Records with an inconclusive call do not appear. Active and inactive are the calls of the source. Calls follow the shape of the dose curve; as a rule, active = well fitted curve in the direction sought with a large enough effect; inconclusive = small, poorly fitted or top-dose-only effect, or another doubt; inactive = no such curve, though single readings can be large or run the other way.
observation type: outcome

Below: 5 compounds and their reported outcome.
> print(dat)
                                   compound  observation.type    result
1    CC(=O)NNC(=O)N1Cc2ccccc2Oc2ccc(Cl)cc21           outcome  inactive
2                    O=c1[nH]ccc2c(O)cccc12           outcome  inactive
3  CC1CCN=C(N)S1 (configuration not stated)           outcome  inactive
4                     Nc1ncnc2c1ncn2C1CCCC1           outcome  inactive
5  OC[C@H]1O[C@@H](n2cnc3cncnc32)[C@H](O)[C@@H]1O           outcome  inactive

What measured outcome goes with O=c1[nH]c(=O)c2nc3ccccc3nc2[nH]1 ?
inactive

What measured outcome goes with CC(C)C[C@H](NC(=O)[C@H](O)[C@H](N)Cc1ccccc1)C(=O)O ?
inactive
